Target Desc: TLR4 (Mus musculus)
Construct: endogenous in cells; host or cells: RAW264.7 (murine macrophage cell line)
Sequence (Q9QUK6 26-835): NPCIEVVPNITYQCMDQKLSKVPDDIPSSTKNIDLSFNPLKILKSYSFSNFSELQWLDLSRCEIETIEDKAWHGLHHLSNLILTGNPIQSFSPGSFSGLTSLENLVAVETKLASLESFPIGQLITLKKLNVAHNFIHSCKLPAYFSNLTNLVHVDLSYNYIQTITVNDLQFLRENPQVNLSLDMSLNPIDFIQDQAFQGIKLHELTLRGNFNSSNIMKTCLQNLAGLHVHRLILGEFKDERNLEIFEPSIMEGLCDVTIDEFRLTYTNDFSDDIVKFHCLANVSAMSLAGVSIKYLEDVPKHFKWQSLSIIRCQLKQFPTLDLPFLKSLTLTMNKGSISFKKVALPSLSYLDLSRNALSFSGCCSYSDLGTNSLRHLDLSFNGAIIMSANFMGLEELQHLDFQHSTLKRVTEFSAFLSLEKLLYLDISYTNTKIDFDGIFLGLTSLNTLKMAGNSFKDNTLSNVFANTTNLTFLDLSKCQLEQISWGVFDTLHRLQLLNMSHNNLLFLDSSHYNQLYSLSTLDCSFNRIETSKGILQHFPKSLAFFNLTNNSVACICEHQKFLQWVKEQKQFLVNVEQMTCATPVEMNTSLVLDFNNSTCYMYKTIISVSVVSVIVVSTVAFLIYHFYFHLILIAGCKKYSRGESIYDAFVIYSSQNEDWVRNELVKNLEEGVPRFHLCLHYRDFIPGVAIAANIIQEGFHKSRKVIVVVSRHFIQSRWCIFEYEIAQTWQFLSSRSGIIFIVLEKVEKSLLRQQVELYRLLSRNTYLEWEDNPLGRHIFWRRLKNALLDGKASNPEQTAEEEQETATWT
Sequence (Q9JHF9 19-160 partner): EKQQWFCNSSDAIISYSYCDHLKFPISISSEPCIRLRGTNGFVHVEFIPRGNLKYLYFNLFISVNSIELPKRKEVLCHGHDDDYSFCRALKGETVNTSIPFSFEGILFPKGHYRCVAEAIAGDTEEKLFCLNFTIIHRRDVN
Assay Comment: Inhibitory effect with respect to NO production (LPS/interferon γ stimulated RAW264.7 cells)
Format: cell-based, murine
Condition Details: test compound 100 nM, LPS 1.25 ng/mL + mouse interferon γ 0.2 ng/mL, nitrite ion in culture supernatant
Readout Type: NO production inhibitory effect at 100 nM (% inhibition)
# unit: % inhibition | format: bare number

Enquiry: Quick check: NO production inhibitory effect at 100 nM (% inhibition) of CCOC(=O)C1=CC2(CCC1S(=O)(=O)Cc1c(C)cccc1Cl)O[C@@H](CO)[C@H](CO)O2 (stereo partly shown) [Compound 26] ?
Return: 110

Enquiry: Dear colleague, I am looking for the recorded NO production inhibitory effect at 100 nM (% inhibition) of the following compound: CCOC(=O)C1=CC2(CCC1S(=O)(=O)Cc1ccc(F)cc1Cl)OC[C@H](CNC(=O)OCc1ccccc1)O2 (stereo partly shown) [Compound 29]
Return: 86

Enquiry: Any idea what NO production inhibitory effect at 100 nM (% inhibition) was measured for CCOC(=O)C1=CC2(CCC1S(=O)(=O)Cc1cccc(OC)c1)O[C@H](CO)[C@@H](CO)O2 (stereo partly shown) [Compound 13] ?
Return: 100

Enquiry: What does the data say about its NO production inhibitory effect at 100 nM (% inhibition)? Entry: CCOC(=O)C1=CC2(CC[C@H]1S(=O)(=O)Cc1cccc(Cl)c1)O[C@H](CO)[C@@H](CO)O2 [Compound 30]
Return: 106

Enquiry: Tell me the measured NO production inhibitory effect at 100 nM (% inhibition) of CCOC(=O)C1=CC2(CCC1S(=O)(=O)Cc1ccc(F)cc1Cl)O[C@H](COC(C)=O)[C@@H](COC(C)=O)O2 (stereo partly shown) [Compound 10] , please.
Return: 110

Enquiry: What value of measured NO production inhibitory effect at 100 nM (% inhibition) is listed for CCOC(=O)C1=CC2(CCC1S(=O)(=O)Cc1ccc(F)cc1Cl)O[C@H](C)[C@@H](C)O2 (stereo partly shown) [Compound 18] ?
Return: 100

Enquiry: Can you share its NO production inhibitory effect at 100 nM (% inhibition)? I mean this compound: CCOC(=O)C1=CC2(CCC1S(=O)(=O)Cc1cccc(Cl)c1)O[C@@H](CO)[C@H](CO)O2 (stereo partly shown) [Compound 24]
Return: 100
